Catalogue of compounds with associated AUTOMATED ASSAY BACE2 pIC50
Target: β-secretase II (BACE2) (Homo sapiens, UniProt Q9Y5Z0)
Sequence (Q9Y5Z0 63-518): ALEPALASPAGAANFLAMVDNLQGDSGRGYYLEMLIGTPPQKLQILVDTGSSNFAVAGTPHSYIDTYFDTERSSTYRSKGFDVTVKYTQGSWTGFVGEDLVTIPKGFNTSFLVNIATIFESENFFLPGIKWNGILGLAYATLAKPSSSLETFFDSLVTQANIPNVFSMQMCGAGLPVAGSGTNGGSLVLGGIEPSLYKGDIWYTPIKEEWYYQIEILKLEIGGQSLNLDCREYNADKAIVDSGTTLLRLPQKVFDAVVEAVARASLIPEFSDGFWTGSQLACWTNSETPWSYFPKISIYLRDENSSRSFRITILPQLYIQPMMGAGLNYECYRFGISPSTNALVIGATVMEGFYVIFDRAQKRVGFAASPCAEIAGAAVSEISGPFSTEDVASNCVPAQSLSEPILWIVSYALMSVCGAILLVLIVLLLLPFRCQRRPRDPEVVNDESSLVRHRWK
Experiment: Biochemical assay, automated (CyclOps), BACE2
Details: automated CyclOps bioassay

| compound | AUTOMATED ASSAY BACE2 pIC50 |
| --- | --- |
| COc1ncc(-c2csc3ccccc23)c2c1C[C@]1(c3ccc(F)cc3F)N=C(N)SC[C@@H]1C2 [Compound 133] | 7.67 |
| COc1ncc(/C=C/c2ccc(F)cc2)c2c1C[C@]1(c3ccc(F)cc3F)N=C(N)SC[C@@H]1C2 [Compound 48] | 7.63 |
| COc1ncc(-c2c(C)noc2C)c2c1C[C@]1(c3cc(OCCOC4CCCCC4)ccc3F)N=C(N)SC[C@@H]1C2 [Compound 148] | 5.19 |
| COc1ncc(-c2cccc3cnccc23)c2c1C[C@]1(c3ccc(F)cc3F)N=C(N)SC[C@@H]1C2 [Compound 132] | 7.16 |
| COc1ncc(-c2cc(Cl)ccc2C)c2c1C[C@]1(c3ccc(F)cc3F)N=C(N)SC[C@@H]1C2 [Compound 60] | 6.73 |
| COc1ncc(-c2cccc3cnn(C)c23)c2c1C[C@]1(c3ccc(F)cc3F)N=C(N)SC[C@@H]1C2 [Compound 127] | 5.6 |
| COc1ncc(-c2c(C)noc2C)c2c1C[C@]1(c3cc(OCc4c(C)noc4C)ccc3F)N=C(N)SC[C@@H]1C2 [Compound 153] | 6.64 |
| COc1ncc(-c2ccccc2C)c2c1C[C@]1(c3cc(OCC4CCC4)ccc3F)N=C(N)SC[C@@H]1C2 [Compound 142] | 7.28 |
| COc1ncc(-c2ccccc2C)c2c1C[C@]1(c3ccc(F)cc3F)N=C(N)SC[C@@H]1C2 [Compound 55] | 7.3 |
| COc1ccc(F)cc1-c1cnc(OC)c2c1C[C@H]1CSC(N)=N[C@@]1(c1cc(OCC3CCOCC3)ccc1F)C2 [Compound 143] | 4.78 |
| COc1ncc(-c2c(C)noc2C)c2c1C[C@]1(c3cc(OCc4cccc(C#N)c4)ccc3F)N=C(N)SC[C@@H]1C2 [Compound 147] | 6.64 |
| COc1ncc(-c2ccccc2)c2c1C[C@]1(c3ccc(F)cc3F)N=C(N)SC[C@@H]1C2 [Compound 49] | 9.02 |
| COc1ncc(-c2c(C)noc2C)c2c1C[C@]1(c3cc(OC4CCOCC4)ccc3F)N=C(N)SC[C@@H]1C2 [Compound 146] | 6.63 |
| COc1ncc(-c2cccc3c2OCCC3)c2c1C[C@]1(c3ccc(F)cc3F)N=C(N)SC[C@@H]1C2 [Compound 128] | 6.19 |
| COc1ncc(-c2ccc(Cl)c(C)c2)c2c1C[C@]1(c3ccc(F)cc3F)N=C(N)SC[C@@H]1C2 [Compound 59] | 7.15 |
